The measured values listed here are drawn from the supplement of paper PMC9170038.

Task for the reader: assign each of the following sequences its reported apparent KD of MS2 coat protein.
tested on: MS2 coat protein; experiment: apparent KD of MS2 coat protein; designed switch direction (-1 OFF switch, 1 ON switch): 1; higher = weaker reporter binding; conditions: input ligand: none
Field: numeric (µM). Do not append units.

Value of apparent KD of MS2 coat protein reported for the sequence GGAGCCAAGGCAGGAUAUUCAUAUUAAUAACACAUGAGGAUCACCCAUGUGGCCAGAAGGCCAUGGGAGAAGGGCCAUGGCUCG [Xeonanis - 13 mod10] (Eterna round: R96, puzzle: Same State NG 2) is 0.469

Input GGUGCCAAUAAAGCCUACAUGAGGAUCACCCAUGUAUGUAGGUAGGAUAUCGUUUGCAAAGCAAACGAGAAGGGCCUAGGCACC [Mat - Same State NG 3 - JL Mod - D58] (Eterna round: R96, puzzle: Same State NG 3) . Output apparent KD of MS2 coat protein: 0.0531

Note to self: apparent KD of MS2 coat protein recorded for UUAUCUCUUACAUGAGGAUCACCCAUGUUUUUAUGUCUUAGACAGGAUAUAGUAGUCUCGUUUUACUAGAAGGGUCUUUUUAUU [JR_SSNG3_Sub019] (Eterna round: R96, puzzle: Same State NG 3) was 0.0514

Reported apparent KD of MS2 coat protein ( CUCAACAACACAGGAUAUCCAGGGAAAAGCCCUGGAGAAGGGUGACCAACAUGAGGAUCACCCAUGUGACGGCUAAACCGUCUG [Inususisre] (Eterna round: R96, puzzle: Same State NG 1) ) = 0.0607

// UGGUACAUGGGAGGAUAUCAUGCAAACAUGAGGAUCACCCAUGUAGCCAUGGAGACAUGGGUAUAUGAGAAGGCCCAUGUACCU [JL SSNG1 3.52] (Eterna round: R96, puzzle: Same State NG 2) : apparent KD of MS2 coat protein value = 0.0883

---

test system: MS2 coat protein; assay: apparent KD of MS2 coat protein; higher = weaker reporter binding; settings: Eterna round: R107; input ligand: theophylline 2 mM
Consider the following sequences; for each one, report its apparent KD of MS2 coat protein.
A bare number is not enough; add the unit after it.

Known value: MS2 coat protein apparent KD of MS2 coat protein of the sequence AUGCUUGUCAGAAGGAGCGUCUUUAACAUGAGGAUCACCCAUGUAUCAUGGAAUUUGAUGAGACAGGUAGGUCGCUGAAUAGUAA [JR_SSArginiB_Sub021] equals 34.5 nM

Tested on MS2 coat protein: ACGUAGAAGUCGGCCGCCACUGAUUUCAUGUUCAACAUGAGGAUCACCCAUGUACCUUAUGUUAACAGGACCGGGACGUAUACGA [JR_SSTryptoB_Sub001] . Observed apparent KD of MS2 coat protein: 442 nM

Here GUUAUAGACGGAAGGAGCGCGGCCACAUGAGGAUCACCCAUGUAUUGUGUUGGUAAUAGGUCGCAGGUAGGUCGCCGAUUAAUGA [Same State - Arginine B / A] was tested on MS2 coat protein, and its apparent KD of MS2 coat protein came to 47.5 nM

Record for UUUUAGCAUCGAAGGAGCGCUGGUGAAACUGACUAUGGAACAUGAGGAUCACCCAUGUGCUAGCAGGUAGGUCGCGAUGCUAUUU [SSAB NP+V+V2 #10] under target or system MS2 coat protein: apparent KD of MS2 coat protein reported as 18.1 nM

Short answer on MS2 coat protein for GCUAGGUCUACGGCCGCCACUAGACGUGGGUAAGACAUGAGGAUCACCCAUGUACUACAGGCGCAUAGGACCGGGUAGACCUAGC [SSTB NP+V+V2 #11 Same Structure] , apparent KD of MS2 coat protein: 82.6 nM

The sequence ACAUGAGGAUCACCCAUGUUUGUUGUUCCUCGAGGACCGGUACGGCCGCCACUCGAACGAGUGGCGCGCGAGUGCGCACUCGCGC [aOa] , tested on MS2 coat protein, showed apparent KD of MS2 coat protein of 13.4 nM
